Where do these numbers come from? They come from ChEMBL document CHEMBL1961873.

- System Under Test: Tyrosine-protein kinase Lck (Homo sapiens);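 note: reported values are mean percent inhibition of Lck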
- Run Parameters: at 0.1 µM
Parameter Measured: inhibition (%)

>>> print(df.to_string())
                               given_smiles  measured
0  O=C1Nc2ccccc2/C1=C/Nc1ccc2[nH]c(=O)[nH]c2c1      3.64
1  COC(=O)Nc1nc2cc(Oc3ccc(NC(=O)Nc4cccc(Br)c4)cc3)ccc2[nH]1         5
2  CC(C)c1ccc2c(c1)NC(=O)/C2=N/Nc1ccc(S(N)(=O)=O)cc1      1.79
3  OCc1ccc(-c2nc(-c3ccccn3)c(-c3ccc4c(c3)OCO4)[nH]2)cc1      4.57
4   Cc1ccc(C(=O)NC2CC2)cc1-c1ccc2[nH]ncc2c1     -0.97

---

- System Under Test: Mitogen-activated protein kinase 14 (Homo sapiens) (UniProt Q16539)
- Sequence (Q16539 whole entry): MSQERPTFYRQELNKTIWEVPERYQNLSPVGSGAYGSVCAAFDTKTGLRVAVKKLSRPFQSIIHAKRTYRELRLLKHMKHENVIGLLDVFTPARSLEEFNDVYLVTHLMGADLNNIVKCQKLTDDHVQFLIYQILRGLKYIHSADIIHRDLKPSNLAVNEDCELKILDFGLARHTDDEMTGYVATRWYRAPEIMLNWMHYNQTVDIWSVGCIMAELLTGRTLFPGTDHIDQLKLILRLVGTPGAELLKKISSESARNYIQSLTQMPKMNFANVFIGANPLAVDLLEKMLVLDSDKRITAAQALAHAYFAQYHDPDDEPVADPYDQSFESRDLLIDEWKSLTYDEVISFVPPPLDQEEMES
- Run Parameters: at 0.1 µM
Label yes when inhibition >= 5%; otherwise no.

>>> df
                               given_smiles  qualitative_label
0  O=C1Nc2ccccc2/C1=C/Nc1ccc2[nH]c(=O)[nH]c2c1                yes
1     COC(=O)c1cncc(/C=C/c2c(C)cc(O)cc2C)c1                 no
2  O=C(Nc1ccc(Oc2ccc3[nH]c(NC(=O)c4ccco4)nc3c2)cc1)Nc1cc(C(F)(F)F)ccc1F                 no
3          CN(C)CCCn1c(-c2nonc2N)nc2cnccc21                yes
4  Nc1nccc(C#Cc2cncnc2Nc2ccc(OCc3cccc(F)c3)c(Cl)c2)n1                 no

---

- System Under Test: High affinity nerve growth factor receptor (Homo sapiens) (UniProt P04629);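 note: each value is a mean of replicate percent inhibition readings against TRKA kinase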
- Sequence (P04629 33-796 limits assumed): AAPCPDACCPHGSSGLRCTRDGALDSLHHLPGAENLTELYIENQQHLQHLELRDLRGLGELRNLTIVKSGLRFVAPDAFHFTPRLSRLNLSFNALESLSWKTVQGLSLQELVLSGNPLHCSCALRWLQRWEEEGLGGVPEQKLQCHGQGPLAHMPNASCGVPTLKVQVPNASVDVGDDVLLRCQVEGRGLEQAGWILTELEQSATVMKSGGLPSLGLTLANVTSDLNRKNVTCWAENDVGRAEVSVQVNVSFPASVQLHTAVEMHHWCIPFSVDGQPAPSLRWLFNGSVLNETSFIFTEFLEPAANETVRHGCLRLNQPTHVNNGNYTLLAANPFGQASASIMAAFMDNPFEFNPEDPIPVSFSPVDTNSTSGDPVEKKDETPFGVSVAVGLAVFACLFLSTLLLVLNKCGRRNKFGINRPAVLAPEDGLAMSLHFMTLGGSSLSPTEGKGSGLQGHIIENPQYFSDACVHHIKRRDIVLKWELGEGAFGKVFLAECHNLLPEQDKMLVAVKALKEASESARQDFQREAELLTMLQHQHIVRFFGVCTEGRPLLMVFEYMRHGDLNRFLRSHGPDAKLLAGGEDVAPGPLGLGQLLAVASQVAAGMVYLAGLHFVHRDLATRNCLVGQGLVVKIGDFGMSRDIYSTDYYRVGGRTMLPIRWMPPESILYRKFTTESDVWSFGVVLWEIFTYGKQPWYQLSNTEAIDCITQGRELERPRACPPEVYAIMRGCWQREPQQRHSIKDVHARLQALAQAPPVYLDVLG
- Run Parameters: at 0.1 µM
# inhibition annotations
Parameter Measured: inhibition (%)

                               given_smiles  measured
0  Nc1nccc(-c2c(-c3ccc(F)cc3)nn3cc(C(F)(F)F)ccc23)n1     -2.97
1  c1ccc(Cc2nc3ccc(Nc4ncnc5ccccc45)cc3[nH]2)cc1      2.77
2  O=C1Nc2ccc(-c3cccnc3)cc2C1=Cc1cc(Br)c(O)c(Br)c1       4.7
3  OCc1ccc(-c2nc(-c3ccccn3)c(-c3ccc4c(c3)OCO4)[nH]2)cc1      3.27
4     COc1cc(/C=N/Nc2ncnc3c2cnn3C(C)C)ccc1O      1.66
5  CN(C)C(=O)O[C@@H]1CN[C@@H](C#Cc2cc3ncnc(Nc4ccc(OCc5cccc(F)c5)c(Cl)c4)c3s2)C1     -3.09
6  Cc1ccc(NC(=O)CC2CC2)cc1-c1ccc(C(=O)NCC2CC2)cc1       3.3
7  Cc1ccc2c(-c3ccnc(Nc4cccc(C(F)(F)F)c4)n3)c(-c3ccccc3)nn2n1      1.79

---

- System Under Test: Mast/stem cell growth factor receptor Kit (Homo sapiens);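 note: values given as mean inhibition of KIT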
- Run Parameters: at 1 µM
# inhibition annotations
Parameter Measured: inhibition (%)

>>> df
                               given_smiles                         system_under_test  parameter_measured  measure_unit  measured
0  CCS(=O)(=O)c1ccc(OC)c(Nc2nccc(N(C)c3ccc4c(C)n[nH]c4c3)n2)c1  Mast/stem cell growth factor receptor Kit (Homo sapiens)          inhibition             %      88.5
1  NS(=O)(=O)c1ccc(Nc2cc(-c3cccc(O)c3)n[nH]2)cc1  Mast/stem cell growth factor receptor Kit (Homo sapiens)          inhibition             %      83.7
2  COc1cccc(-n2nc(C)c3c(N/N=C(\C)c4ccncc4)ncnc32)c1  Mast/stem cell growth factor receptor Kit (Homo sapiens)          inhibition             %      2.68
3             CCn1c(-c2nonc2N)nc2ccc(F)cc21  Mast/stem cell growth factor receptor Kit (Homo sapiens)          inhibition             %      6.81
4  O=C1Nc2ccc(-c3cccnc3)cc2C1=Cc1cc(Br)c(O)c(Br)c1  Mast/stem cell growth factor receptor Kit (Homo sapiens)          inhibition             %      3.66
5   NC(=O)c1cccc(Nc2nccc(Nc3cccc(F)c3)n2)c1  Mast/stem cell growth factor receptor Kit (Homo sapiens)          inhibition             %      82.6
6  CS(=O)(=O)CCNCc1nc(-c2ccc3ncnc(Nc4ccc(OCc5cccc(C(F)(F)F)c5)cc4)c3c2)cs1  Mast/stem cell growth factor receptor Kit (Homo sapiens)          inhibition             %      12.8
7  NS(=O)(=O)c1ccc(NC=C2C(=O)Nc3ccc4ncsc4c32)cc1  Mast/stem cell growth factor receptor Kit (Homo sapiens)          inhibition             %      94.3
8             c1ccc(Nc2ncc(-c3ccccc3)o2)cc1  Mast/stem cell growth factor receptor Kit (Homo sapiens)          inhibition             %      88.1
9  Nc1nccc(C#Cc2cncnc2Nc2ccc(OCc3cccc(F)c3)c(Cl)c2)n1  Mast/stem cell growth factor receptor Kit (Homo sapiens)          inhibition             %      2.68

---

- System Under Test: Cyclin-dependent kinase 4 (Homo sapiens) (UniProt P11802);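 note: enzyme tested as the CDK4–cyclin D complex, with the value reported as mean percent inhibition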
- Sequence (P11802 whole entry): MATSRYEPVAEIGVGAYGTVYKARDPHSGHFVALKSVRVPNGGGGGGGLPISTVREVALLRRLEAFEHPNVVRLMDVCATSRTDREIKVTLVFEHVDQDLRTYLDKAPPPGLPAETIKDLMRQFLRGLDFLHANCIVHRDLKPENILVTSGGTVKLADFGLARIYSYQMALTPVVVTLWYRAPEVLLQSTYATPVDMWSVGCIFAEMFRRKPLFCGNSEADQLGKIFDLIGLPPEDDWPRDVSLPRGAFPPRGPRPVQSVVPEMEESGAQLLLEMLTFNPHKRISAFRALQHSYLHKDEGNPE
- Run Parameters: at 1 µM
Recorded inhibition determines the group label, using lo (below 2%), med (2% to below 6%), hi (6% or more)

>>> print(df.to_string())
                               given_smiles  qualitative_label
0   Cc1ccc(C(=O)NC2CC2)cc1-c1ccc2[nH]ncc2c1                 lo
1  C[C@@H](Oc1cc(-n2cnc3ccc(OCC4CCN(C)CC4)cc32)sc1C(N)=O)c1ccccc1C(F)(F)F                 lo
2  COc1cccc(-n2ncc3c(N/N=C/c4ccc(C)cc4)ncnc32)c1                 hi
3  c1ccc(Cc2nc3ccc(Nc4ncnc5ccccc45)cc3[nH]2)cc1                med
4    N#Cc1cccc(Nc2nccc(-c3cnn4ncccc34)n2)c1                 hi
5   COc1ccc2ncnc(Nc3ccc(OCc4ccccc4)cc3)c2c1                 lo
6  Cc1ccc(Nc2ccnc(Nc3cccc(C(N)=O)c3)n2)cc1O                 lo
7  FC(F)(F)c1ccc(-c2nn3ncccc3c2-c2ccnc(Nc3ccc4c(c3)OCCO4)n2)cc1                med
8   Cc1nc(-c2ccccc2)n2nc(NCCCN3CCOCC3)ncc12                 hi
9  Cc1ccc(NC(=O)CC2CC2)cc1-c1ccc(C(=O)NCC2CC2)cc1                med

---

- System Under Test: Ribosomal protein S6 kinase alpha-1 (Homo sapiens);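 note: mean inhibition of RSK1, reported in the GSK PKIS screen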
- Run Parameters: at 1 µM
# inhibition annotations
Parameter Measured: inhibition (%)

>>> print(df.to_string())
                               given_smiles  parameter_measured  measured
0  COc1cc2ncnc(Nc3ccc4c(cnn4Cc4ccccc4)c3)c2cc1OC          inhibition      2.15
1  CN(C)C(=O)O[C@@H]1CN[C@@H](C#Cc2cc3ncnc(Nc4ccc(OCc5cccc(F)c5)c(Cl)c4)c3s2)C1          inhibition      0.71
2          CN(C)CCCn1c(-c2nonc2N)nc2cnccc21          inhibition      11.8
3  COc1cccc(-n2nc(C)c3c(N/N=C(\C)c4ccncc4)ncnc32)c1          inhibition     -0.11
4   Cc1ccc(C(=O)NC2CC2)cc1-c1ccc2[nH]ncc2c1          inhibition      1.93

---

# inhibition annotations
- System Under Test: Mitogen-activated protein kinase 14 (Homo sapiens) (UniProt Q16539)
- Run Parameters: at 1 µM
Parameter Measured: inhibition (%)

>>> df
                               given_smiles  parameter_measured  measure_unit  measured
0    N#Cc1cccc(Nc2nccc(-c3cnn4ncccc34)n2)c1          inhibition             %      14.6
1  CCS(=O)(=O)c1ccc(OC)c(Nc2ncc(-c3cccc(OC)c3)o2)c1          inhibition             %      7.73
2  COc1cc(Nc2nccc(-c3cnn4ncccc34)n2)cc(OC)c1          inhibition             %      10.3
3  CN(c1ccc(NC(=O)Nc2ccc(OC(F)(F)F)cc2)cc1)c1ccnc(Nc2cccc(S(N)(=O)=O)c2)n1          inhibition             %      13.6
4  NS(=O)(=O)c1ccc(N/N=C2\C(=O)Nc3ccc(Cl)cc32)cc1          inhibition             %      4.11
5     COc1cc(/C=N/Nc2ncnc3c2cnn3C(C)C)ccc1O          inhibition             %      3.92
6  Nc1nccc(-c2c(-c3ccc(F)cc3)nn3cc(C(F)(F)F)ccc23)n1          inhibition             %      47.2
7  CS(=O)(=O)Nc1cccc(-c2ccc3c(NC(=O)C4CC4)n[nH]c3c2)c1          inhibition             %      6.14
8   NC(=O)c1cccc(Nc2nccc(Nc3cccc(F)c3)n2)c1          inhibition             %       2.5
9  Cc1ccc2c(c1)/C(=N/Nc1ccc(S(N)(=O)=O)cc1)C(=O)N2          inhibition             %      5.27
